Tested on: RAW264.7
assayDetails: Antiinflammatory activity in mouse RAW264.7 cells assessed as inhibition of LPS-stimulated nitric oxide production after 24 hrs by Griess method
Format: functional, cell-based
assayConditions: RAW264.7, 24 h
Here the recorded IC50 is given for each entry.
quantityKind: IC50 (µM)

compound=C=C(C)[C@H](CC=C(C)C)Cc1c(O)cc(O)c2c1O[C@H](c1ccc(O)cc1O)CC2=O reportedresult=10.9
compound="CC(C)=CCc1c(O)cc(O)c2c1OC(c1ccc(O)cc1)CC2=O (configuration not stated)" reportedresult=26.3
compound=CC(C)=CCc1c2c(c(O)c3c1O[C@H](c1ccc(O)cc1)[C@H]3c1cc(O)cc(O)c1)C(=O)C[C@@H](c1ccc(O)cc1)O2 reportedresult=19
compound="CC1(C)CCC(Cc2c3c(c(O)c4c2O[C@H](c2ccc(O)cc2)[C@H]4c2cc(O)cc(O)c2)C(=O)C[C@@H](c2ccc(O)cc2O)O3)C(C)(C)O1 (some centres not stated)" reportedresult=27.8
compound=N=C(N)NN reportedresult=20.6
compound=C=CC(C)(C)c1c(OC)cc(O)c2c(=O)c3c(CC=C(C)C)c(O)c(O)cc3oc12 reportedresult=16.1
compound="C=C(C)C(CCC(C)(C)O)Cc1c2c(c(O)c3c1O[C@H](c1ccc(O)cc1)[C@H]3c1cc(O)cc(O)c1)C(=O)C[C@@H](c1ccc(O)cc1O)O2 (some centres not stated)" reportedresult=32.7

* * *

System: RAW264.7
assayDetails: Antiinflammatory activity in mouse RAW264.7 cells assessed as inhibition of LPS-stimulated nitric oxide production after 24 hrs by Griess method
Format: functional, cell-based
assayConditions: RAW264.7, 24 h
pIC50: −log10 of the molar value.
quantityKind: pIC50

compound=OC[C@H]1O[C@@H](Oc2ccc3c(c2)OC[C@H]2c4cc5c(cc4O[C@@H]32)OCO5)[C@H](O)[C@@H](O)[C@@H]1O comparativesign=< reportedresult=4.30
compound="CC(C)=CCC1Cc2c(cc(O)c3c2O[C@H](c2ccc(O)cc2O)CC3=O)OC1(C)C (stereo partly specified)" comparativesign== reportedresult=4.97
compound="C=C(C)C(CC=C(C)C)Cc1c(O)cc(OC)c2c1O[C@H](c1ccc(O)cc1O)CC2=O (stereo partly specified)" comparativesign== reportedresult=4.58
compound=Oc1ccc([C@@H]2c3c(O)cc(O)cc3[C@H]3[C@H](c4ccc(O)cc4)c4c(O)cc(O)cc4[C@@H]23)cc1 comparativesign=< reportedresult=4.30
compound=CC(C)=CCc1c2c(c(O)c3c1O[C@H](c1ccc(O)cc1)[C@H]3c1cc(O)cc(O)c1)C(=O)C[C@@H](c1ccc(O)cc1O)O2 comparativesign== reportedresult=5.14
compound="C=C(C)C(CC=C(C)C)Cc1c2c(c(O)c3c1O[C@@H](c1ccc(O)cc1)[C@H]3c1cc(O)cc(O)c1)C(=O)C[C@@H](c1ccc(O)cc1O)O2 (stereo partly specified)" comparativesign== reportedresult=4.80
